# target system: human serum albumin (human) (UniProt P02768)
# Sequence (P02768 25-609 limits assumed): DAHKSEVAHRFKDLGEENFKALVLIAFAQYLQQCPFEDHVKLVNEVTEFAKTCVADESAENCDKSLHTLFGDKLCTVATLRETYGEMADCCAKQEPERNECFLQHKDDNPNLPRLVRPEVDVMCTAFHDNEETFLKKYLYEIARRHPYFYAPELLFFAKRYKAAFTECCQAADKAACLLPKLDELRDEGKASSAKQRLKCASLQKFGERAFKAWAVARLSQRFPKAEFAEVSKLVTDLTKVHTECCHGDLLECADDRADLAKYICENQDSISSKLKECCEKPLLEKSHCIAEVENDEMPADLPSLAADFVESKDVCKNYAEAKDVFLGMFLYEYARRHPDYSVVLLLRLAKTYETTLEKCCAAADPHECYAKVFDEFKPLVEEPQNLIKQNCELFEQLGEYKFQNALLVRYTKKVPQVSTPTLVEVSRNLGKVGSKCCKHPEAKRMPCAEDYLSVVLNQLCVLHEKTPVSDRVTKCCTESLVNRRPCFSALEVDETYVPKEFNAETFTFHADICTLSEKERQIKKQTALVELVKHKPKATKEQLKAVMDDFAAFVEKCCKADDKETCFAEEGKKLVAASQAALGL
# assay remarks: screening ELISA
With a cut-off of 3000, any HSA strictly below it is called MET; any HSA meeting it or above is called NOT MET.

INSERT INTO measurements (binder, category) VALUES
  ('SEQ ID NO 51 (designed binder) MLPAPKNLVVSRVTEDSARLSWTAPDAAFDSFFIKYIEWWADGEAIVLTVPGSERSYDLTGLKPGTEYLVEIYGVKGGKWSWPLSAIFTT', 'NOT MET'),
  ('SEQ ID NO 263 (designed binder) MLPAPKNLVVSRVTEDSARLSWTAPDAAFDSFFIGYLEPQPPGEAIVLTVPGSERSYDLTGLKPGTEYNVTIQGVKGGFPSMPLSAISTT', 'NOT MET'),
  ('SEQ ID NO 286 (designed binder) MLPAPKNLVVSRVTEDSARLSWTAPDAAFDSFNIYYPEFPVRGEAIVLTVPGSERSYDLTGLKPGTEYVVSIWGVKGGTQSWPLSAIFTT', 'NOT MET'),
  ('SEQ ID NO 43 (designed binder) MLPAPKNLVVSRVTEDSARLSWTAPDAAFDSFYIEYYESYPGGEAIVLTVPGSERSYDLTGLKPGTEYDVYIYGVKGGYWSRPLSAIFTT', 'NOT MET'),
  ('SEQ ID NO 233 (designed binder) MLPAPKNLVVSRVTEDSARLSWTAPDAAFDSFYIVYAEPIPNGEAIVLTVPGSERSYDLTGLKPGTEYSVLIHGVKGGRNSDPLSAIFTT', 'MET'),
  ('SEQ ID NO 157 (designed binder) MLPAPKNLVVSRVTEDSARLSWTAPDAAFDSFAIEYYEYVGNGEAIVLTVPGSERSYDLTGLKPGTEYQVGIYGVKGGYYSRPLSAIFTT', 'MET'),
  ('SEQ ID NO 118 (designed binder) MLPAPKNLVVSRVTEDSARLSWTAPDAAFDSFRILYGEVDPWGEAIVLTVPGSERSYDLTGLKPGTEYDVWIEGVKGGKLSWPLSAIFTT', 'NOT MET'),
  ('SEQ ID NO 81 (designed binder) MLPAPKNLVVSRVTEDSARLSWTAPDAAFDSFVIEYREGAWYGEAIVLTVPGSERSYDLTGLKPGTEYAVYIPGVKGGPRSFPLSAIFTT', 'NOT MET'),
  ('SEQ ID NO 227 (designed binder) MLPAPKNLVVSRVTEDSARLSWTAPDAAFDSFRIRYLEWWNIGEAIVLTVPGSERSYDLTGLKPGTEYHVDIWGVKGGYSSYPLSAIFTT', 'MET');
